# SYSTEM TESTED: Multidrug resistance-associated protein 1 (Homo sapiens, UniProt P33527)
# Sequence (P33527 whole entry): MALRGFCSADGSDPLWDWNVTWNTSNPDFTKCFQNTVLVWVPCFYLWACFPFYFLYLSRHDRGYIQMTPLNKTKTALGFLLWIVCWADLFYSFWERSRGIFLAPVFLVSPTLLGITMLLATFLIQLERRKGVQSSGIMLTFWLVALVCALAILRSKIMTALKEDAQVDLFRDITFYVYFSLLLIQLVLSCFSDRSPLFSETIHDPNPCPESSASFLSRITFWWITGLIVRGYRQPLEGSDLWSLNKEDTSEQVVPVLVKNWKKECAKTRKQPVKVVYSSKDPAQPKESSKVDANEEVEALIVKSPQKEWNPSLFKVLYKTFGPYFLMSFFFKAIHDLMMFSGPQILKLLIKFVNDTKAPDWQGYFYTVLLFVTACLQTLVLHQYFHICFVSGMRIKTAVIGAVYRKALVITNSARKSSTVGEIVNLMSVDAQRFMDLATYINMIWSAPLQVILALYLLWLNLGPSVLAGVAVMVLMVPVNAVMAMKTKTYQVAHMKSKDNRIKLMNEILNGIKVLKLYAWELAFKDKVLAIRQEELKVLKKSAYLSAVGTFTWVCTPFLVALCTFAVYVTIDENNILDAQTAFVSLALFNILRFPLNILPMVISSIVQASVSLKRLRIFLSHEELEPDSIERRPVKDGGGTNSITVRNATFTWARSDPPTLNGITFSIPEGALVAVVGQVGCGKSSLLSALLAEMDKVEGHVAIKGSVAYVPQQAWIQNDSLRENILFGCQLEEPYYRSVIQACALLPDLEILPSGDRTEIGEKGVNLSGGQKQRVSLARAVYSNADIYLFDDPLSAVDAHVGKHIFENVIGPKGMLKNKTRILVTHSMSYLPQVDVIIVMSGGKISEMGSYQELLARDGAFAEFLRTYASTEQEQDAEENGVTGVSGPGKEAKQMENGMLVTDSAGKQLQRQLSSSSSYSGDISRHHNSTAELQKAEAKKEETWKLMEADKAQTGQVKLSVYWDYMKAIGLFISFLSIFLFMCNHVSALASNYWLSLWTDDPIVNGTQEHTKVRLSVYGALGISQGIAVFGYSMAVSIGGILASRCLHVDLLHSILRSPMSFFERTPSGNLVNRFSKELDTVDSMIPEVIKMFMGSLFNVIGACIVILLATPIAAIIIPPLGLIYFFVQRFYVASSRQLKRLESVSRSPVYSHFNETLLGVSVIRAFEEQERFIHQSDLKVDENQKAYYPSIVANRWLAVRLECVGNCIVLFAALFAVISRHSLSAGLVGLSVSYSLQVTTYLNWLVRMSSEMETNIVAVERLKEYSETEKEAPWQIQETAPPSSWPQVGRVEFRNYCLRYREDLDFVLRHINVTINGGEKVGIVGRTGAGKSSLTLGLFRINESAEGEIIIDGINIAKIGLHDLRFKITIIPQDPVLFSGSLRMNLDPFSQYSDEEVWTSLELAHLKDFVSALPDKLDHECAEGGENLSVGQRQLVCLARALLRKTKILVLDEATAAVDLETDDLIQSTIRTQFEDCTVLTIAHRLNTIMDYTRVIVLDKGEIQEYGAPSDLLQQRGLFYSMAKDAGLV
# METHOD NOTES: Inhibitory activity against human transporter MRP1 (Multidrug resistance associated protein 1) expressed in COR.L23/R cell line
EXPERIMENTAL ENDPOINT: log10(IC50) (log10 of the value in nM)
A value of 2 here means IC50 of 100 in nM, since values are log10.

>>> obs_value("NC(=O)c1c2n(c3c(N4CCN(CCc5ccc(F)c(F)c5)CC4)ncnc13)CCCC2")
2.14
>>> obs_value("N#Cc1c2n(c3c(N4CCN(S(=O)(=O)Cc5ccccc5)CC4)ncnc13)CCCC2")
3.82
>>> obs_value("Cc1ccccc1-c1nc(N2CCN(CCc3ccc(F)c(F)c3)CC2)c2c(n1)c(C#N)c1n2CCCC1")
2.79
>>> obs_value("N#Cc1c2n(c3c(N4CCN(CC(=O)c5ccccc5)CC4)ncnc13)CCCC2")
3.27
>>> obs_value("N#Cc1c2n(c3c(N4CCN(CCc5ccc(F)c(F)c5)CC4)nc(-c4cccnc4)nc13)CCCC2")
2.34

Sample N#Cc1c2n(c3c(N4CCN(CCc5ccccc5)CC4)nc(-c4ccccc4)nc13)CCCC2 ; log10(IC50) observed: 2.85

Please fill in: log10(IC50) reported for N#Cc1c2n(c3c(SCc4ccc(Cl)cc4)ncnc13)CCCCC2 = 3.59

molecule Cc1nc(-c2c3n(c4c(N5CCN(CCc6ccccc6)CC5)ncnc24)CCCC3)no1 , log10(IC50) observed: 2.81

The recorded log10(IC50) for entry N#Cc1c2n(c3c(N4CCN(CCc5cccc(Cl)c5)CC4)ncnc13)CCCC2 equals 2.96

###

# METHOD NOTES: Half life in BALB/C mice at the dose of 20 mg/kg by i.v. administration
# Type: ADME, organism-based
# Parameters: dose 20 mg/kg, route intravenous
# TEST SETTINGS: BALB/C, mouse, in vivo, iv
EXPERIMENTAL ENDPOINT: half-life
Field note: include the unit after the figure.

Please fill in: half-life reported for O=C(NCc1ccccn1)c1c2n(c3c(N4CCN(CCc5ccc(F)c(F)c5)CC4)ncnc13)CCCC2 = 2.5 h

###

Values of pIC50 reported for ATP-dependent translocase ABCB1 (Mus musculus) appear below.
Note on units: pIC50 is unitless, being -log10 of a concentration expressed in mol/L.

Example cases with answers are listed next.
>>> obs_value("N#Cc1c2n(c3c(N4CCN(CCc5ccc(Cl)cc5)CC4)ncnc13)CCCC2")
5.04
>>> obs_value("COc1cccc(CNC(=O)c2c3n(c4c(N5CCN(CCc6ccc(F)c(F)c6)CC5)ncnc24)CCCC3)c1OC")
5.43
>>> obs_value("N#Cc1c2n(c3c(N4CCN(CCc5ccccc5)CC4)nc(I)nc13)CCCC2")
4.88
>>> obs_value("Cc1ccccc1-c1nc(N2CCN(CCc3ccc(F)c(F)c3)CC2)c2c(n1)c(C#N)c1n2CCCC1")
4.74
>>> obs_value("Cc1nc(-c2c3n(c4c(N5CCN(CCc6ccccc6)CC5)ncnc24)CCCC3)sc1C")
5.22
>>> obs_value("N#Cc1c2n(c3c(N4CCN(CCc5ccccc5Cl)CC4)ncnc13)CCCC2")
4.97
>>> obs_value("Cc1nc(-c2c3n(c4c(N5CCN(CCc6ccccc6)CC5)ncnc24)CCCC3)no1")
5.43
>>> obs_value("N#Cc1c2n(c3c(N4CCN(S(=O)(=O)Cc5ccccc5)CC4)ncnc13)CCCC2")
4.85
>>> obs_value("N#Cc1c2n(c3c(N4CCN(CCc5c[nH]c6ccccc56)CC4)ncnc13)CCCC2")
5.24
>>> obs_value("N#Cc1c2n(c3c(NS(=O)(=O)Cc4ccccc4)ncnc13)CCCC2")
5.27

Tested on ATP-dependent translocase ABCB1 (Mus musculus), the item N#Cc1c2n(c3c(NCCc4ccccc4)ncnc13)CCCC2 showed pIC50 equal to 4.80

Given the molecule N#Cc1c2n(c3c(N4CCN(CCCc5ccccc5)CC4)ncnc13)CCCC2 and test system ATP-dependent translocase ABCB1 (Mus musculus), the measured pIC50 is 4.89
